β3 receptor I.A. values for the molecules below.
System Tested: human β3-adrenergic receptor (Homo sapiens, UniProt P13945)
Construct: A full-length human β3 gene is obtained from a human genomic library (made by Clontech) using this as the probe; expressed in transfected cells; host or cells: CHO (Chinese hamster ovary) cells, pcDNA3
Sequence (P13945 whole entry): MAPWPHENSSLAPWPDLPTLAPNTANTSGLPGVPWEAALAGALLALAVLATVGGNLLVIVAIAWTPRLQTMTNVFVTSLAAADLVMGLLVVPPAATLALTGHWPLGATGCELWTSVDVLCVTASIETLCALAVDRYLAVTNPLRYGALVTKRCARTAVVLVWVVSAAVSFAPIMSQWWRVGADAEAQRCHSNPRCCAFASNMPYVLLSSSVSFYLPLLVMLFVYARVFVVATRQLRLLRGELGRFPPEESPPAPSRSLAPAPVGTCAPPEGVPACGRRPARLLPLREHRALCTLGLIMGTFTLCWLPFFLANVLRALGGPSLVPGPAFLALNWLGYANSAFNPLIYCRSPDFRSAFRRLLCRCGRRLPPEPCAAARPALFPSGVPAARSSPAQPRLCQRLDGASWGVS
Experimental Protocol: Test Case 1-B: human β3-adrenergic receptor agonist activity (cAMP-Screen, 96-well)
Type: cell-based
Test Context: Test Case 1-B; maximum response of isoproterenol = 100%
The reply should contain only the number, in %.

As a guide, the following entries are already answered.
| Molecule | System Tested | β3 receptor I.A. (%) |
| --- | --- | --- |
| O=S(=O)(Nc1cccc([C@@H](O)CNCCOc2ccc3c(OC(F)F)n[nH]c3c2)c1)c1ccccn1 | human β3-adrenergic receptor (Homo sapiens, UniProt P13945) | 54 |
| COc1n[nH]c2cc(OCCNC[C@H](O)c3cccc(NS(=O)(=O)c4ccsc4)c3)ccc12 | human β3-adrenergic receptor (Homo sapiens, UniProt P13945) | 78 |
| CC(C)NCC(O)c1ccc(O)c(O)c1 (stereo not drawn) [isoproterenol, reference compound] | human β3-adrenergic receptor (Homo sapiens, UniProt P13945) | 100 |
| Cc1n[nH]c2cc(OCCNC[C@H](O)c3cccc(NS(=O)(=O)c4c(F)cccc4F)c3)ccc12 | human β3-adrenergic receptor (Homo sapiens, UniProt P13945) | 96 |

*Q* Fill in the blank: the reported β3 receptor I.A. of Nc1cccc(S(=O)(=O)Nc2cc([C@@H](O)CNCCOc3ccc4c(C(F)(F)F)n[nH]c4c3)ccc2Cl)c1 is ____.
*A* 72

*Q* Fill in the blank: the reported β3 receptor I.A. of COc1n[nH]c2cc(OCCNC[C@H](O)c3cccc(NS(=O)(=O)c4cccs4)c3)ccc12 is ____.
*A* 80
